All figures here come from the NIST ThermoML archive (doi:10.1021/je200195q).

- PROCEDURE_SUMMARY: activity coefficient (dimensionless); of the first substance listed, at infinite dilution; xn = mol fraction of the nth substance listed
- RECORDED_CONDITIONS: 333.15 K; 101 kPa; Liquid; Chromatography; x1 = 0
Threshold rule: activity coefficient greater than or equal to 1 is MET; below that, NOT MET.

Observe how each entry below is paired with its result.
Q) Check the entry C#CCCCC [1-hexyne] + CCCCCCCCCCn1cc[n+](CCCCCCCCCC)c1C.O=S(=O)([N-]S(=O)(=O)C(F)(F)F)C(F)(F)F : does activity coefficient equal or exceed 1?
A) NOT MET

Q) Check the entry C[N+](=O)[O-] [nitromethane] + CCCCCCCCCCn1cc[n+](CCCCCCCCCC)c1C.O=S(=O)([N-]S(=O)(=O)C(F)(F)F)C(F)(F)F : does activity coefficient equal or exceed 1?
A) NOT MET

Q) Check the entry C1COCCO1 [1,4-dioxane] + CCCCCCCCCCn1cc[n+](CCCCCCCCCC)c1C.O=S(=O)([N-]S(=O)(=O)C(F)(F)F)C(F)(F)F : does activity coefficient equal or exceed 1?
A) NOT MET

Q) Check the entry CCO [ethanol] + CCCCCCCCCCn1cc[n+](CCCCCCCCCC)c1C.O=S(=O)([N-]S(=O)(=O)C(F)(F)F)C(F)(F)F : does activity coefficient equal or exceed 1?
A) MET

Q) Check the entry CCCCO [butan-1-ol] + CCCCCCCCCCn1cc[n+](CCCCCCCCCC)c1C.O=S(=O)([N-]S(=O)(=O)C(F)(F)F)C(F)(F)F : does activity coefficient equal or exceed 1?
A) MET

Q) Check the entry CCC(C)=O [butanone] + CCCCCCCCCCn1cc[n+](CCCCCCCCCC)c1C.O=S(=O)([N-]S(=O)(=O)C(F)(F)F)C(F)(F)F : does activity coefficient equal or exceed 1?
A) NOT MET

Q) Check the entry CC(C)CO [2-methyl-1-propanol] + CCCCCCCCCCn1cc[n+](CCCCCCCCCC)c1C.O=S(=O)([N-]S(=O)(=O)C(F)(F)F)C(F)(F)F : does activity coefficient equal or exceed 1?
A) MET

Q) Check the entry ClC(Cl)(Cl)Cl [tetrachloromethane] + CCCCCCCCCCn1cc[n+](CCCCCCCCCC)c1C.O=S(=O)([N-]S(=O)(=O)C(F)(F)F)C(F)(F)F : does activity coefficient equal or exceed 1?
A) NOT MET

Q) Check the entry CC(C)OC(C)C [diisopropyl ether] + CCCCCCCCCCn1cc[n+](CCCCCCCCCC)c1C.O=S(=O)([N-]S(=O)(=O)C(F)(F)F)C(F)(F)F : does activity coefficient equal or exceed 1?
A) MET

Q) Check the entry OCC(F)(F)F [2,2,2-trifluoroethanol] + CCCCCCCCCCn1cc[n+](CCCCCCCCCC)c1C.O=S(=O)([N-]S(=O)(=O)C(F)(F)F)C(F)(F)F : does activity coefficient equal or exceed 1?
A) NOT MET

New cases:
Q) Check the entry CCN(CC)CC [triethylamine] + CCCCCCCCCCn1cc[n+](CCCCCCCCCC)c1C.O=S(=O)([N-]S(=O)(=O)C(F)(F)F)C(F)(F)F : does activity coefficient equal or exceed 1?
A) MET

Q) Check the entry ClCCl [dichloromethane] + CCCCCCCCCCn1cc[n+](CCCCCCCCCC)c1C.O=S(=O)([N-]S(=O)(=O)C(F)(F)F)C(F)(F)F : does activity coefficient equal or exceed 1?
A) NOT MET

Q) Check the entry Cc1ccccc1 [toluene] + CCCCCCCCCCn1cc[n+](CCCCCCCCCC)c1C.O=S(=O)([N-]S(=O)(=O)C(F)(F)F)C(F)(F)F : does activity coefficient equal or exceed 1?
A) NOT MET
